The reader will find reported yeast fitness values listed item by item below.
B1: tRNA (parent)
chain: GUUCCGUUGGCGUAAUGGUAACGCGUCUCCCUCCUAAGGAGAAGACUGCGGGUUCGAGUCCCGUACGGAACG

# Variants of: B1
# assay-name: yeast fitness relative to wild type (ratio to wild type); higher = fitter; tRNA-Arg(CCU), competitive growth, 37 C, YPD
This sample holds only a part of the variants without activity.
Write the number on its own, no unit after it.

// solved cases for yeast fitness follow
G25A A45U C62A | 0.54
G9C A15C U35C U59A | 0.605
C4U G50A G67A | 0.553

Any idea what its yeast fitness is? The variant is A42C C62U C66U
0.507

Any idea what its yeast fitness is? The variant is C4U G38A
0.919

Any idea what its yeast fitness is? The variant is A43G U59C
0.863

Any idea what its yeast fitness is? The variant is C4G U59C A69C
0.778

Any idea what its yeast fitness is? The variant is U3A C33U A45U
0.834

Any idea what its yeast fitness is? The variant is U32C G48C
0.862

Any idea what its yeast fitness is? The variant is U13C A45C
0.853
